Tested on: DAPK3
Settings: concentration: 1 μM, replicates: in singlicate; n = 1;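 further: KINOMEscan kinase panel screen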
Items are presented alongside their recorded %Inh.
readout: %Inh (%)

>>> experimentalresult("CS(=O)(=O)CCNCc1nc(-c2ccc3ncnc(Nc4ccc(OCc5cccc(F)c5)c(Cl)c4)c3c2)cs1.Cl")
6
>>> experimentalresult("CCc1nc(-c2cccc(N(C)S(=O)(=O)c3ccccc3)c2)c(-c2ccnc(Nc3ccc(N4CCN(C(C)=O)CC4)nc3)n2)s1")
4
>>> experimentalresult("Oc1ccc2ncnc(Nc3ccc(OCc4ccccc4)cc3)c2c1")
0
>>> experimentalresult("Cc1cccc(-c2nc(Nc3ccc4[nH]nnc4c3)c3ccccc3n2)n1")
0

---

Tested on: ACVR2B
Settings: concentration: 1 μM, replicates: in singlicate; n = 1
readout: %Inh (%)

>>> experimentalresult("O=C(NCCCN1CCCC1=O)c1cnc(NCc2cc(Cl)ccc2Cl)nc1NC1CCNCC1")
0
>>> experimentalresult("CSc1nn2c(=O)cc(N3CCOCC3)nc2n1Cc1cccc(Cl)c1Cl [GSK2347225]")
12
>>> experimentalresult("Cc1ccc(C)c(NC(=O)NCCNc2ccnc(Nc3ccc(F)cc3)n2)c1 [GSK1379878]")
0
>>> experimentalresult("Cc1cc(N2CCC(NS(=O)(=O)c3ccc(F)cc3)CC2)nc(Nc2cccc(C#N)c2)n1.O=C(O)C(F)(F)F [GSK1653537]")
0
>>> experimentalresult("COc1cc2ncnc(Nc3ccc(OCc4ccccc4Br)c(Cl)c3)c2cc1OC.Cl [GI261590]")
4
>>> experimentalresult("N#Cc1ccc(Oc2ccc(Nc3ncnc4cc[nH]c34)cc2Cl)cc1")
25
>>> experimentalresult("Clc1ccc(-c2cc(-c3c[nH]nc3-c3ccccn3)ccn2)cc1 [GW681251]")
52
>>> experimentalresult("c1ccc(-c2ccc3c(-c4ccnc(Nc5ccc6c(c5)OCCO6)n4)cnn3n2)cc1 [GW818941]")
11
>>> experimentalresult("CCc1nc(-c2cccc(C)c2)c(-c2ccnc(NC(=O)c3ccccc3)c2)s1")
0
>>> experimentalresult("COc1ccc(-c2nc3n(c2-c2ccncc2)CCC3)cc1 [SKF-104493]")
0
>>> experimentalresult("CN1CCC(n2cnc(-c3ccc(F)cc3)c2-c2ccnc(NC3CCNCC3)n2)CC1 [SB-229482]")
0
>>> experimentalresult("Clc1cccc(-c2nc(Nc3ccncc3)c3ccccc3n2)c1 [GW873004]")
15
>>> experimentalresult("CC(C)N1CCC(n2cnc(-c3ccc(F)cc3)c2-c2ccnc(N)n2)CC1 [SB-223132]")
25
>>> experimentalresult("O=C(CCO)NCCn1ccc2ncnc(Nc3ccc(Oc4cccc(C(F)(F)F)c4)c(Cl)c3)c21")
0
>>> experimentalresult("COc1cc2c(Nc3cccc(NC(=O)c4ccccc4)c3)ncnc2cc1OCCCN1CCOCC1 [GSK223810]")
0
>>> experimentalresult("COC(=O)c1cccc(NC(=O)NCCNc2ccnc(Nc3ccc(F)cc3)n2)c1 [GSK1379883]")
0
>>> experimentalresult("COc1ccc(Nc2nccc(N3CCC(NC(=O)Nc4ccc5c(c4)OCO5)C3)n2)cc1 (stereo not drawn) [GSK1379745]")
5
>>> experimentalresult("Cn1ccc2ncnc(Nc3ccc(Oc4cccc(Cl)c4)c(Cl)c3)c21")
17

---

System: CDKL1
Settings: concentration: 1 μM, replicates: in singlicate; n = 1
readout: %Inh (%)

>>> experimentalresult("CCc1nc(-c2cccc(N(C)S(=O)(=O)c3ccccc3)c2)c(-c2ccnc(Nc3ccc(N4CCN(C(C)=O)CC4)nc3)n2)s1 [GSK1645895]")
1
>>> experimentalresult("FC(F)(F)c1ccc(-c2nn3ncccc3c2-c2ccnc(Nc3cccc(C(F)(F)F)c3)n2)cc1 [GW828205]")
55
>>> experimentalresult("COc1ccc(NC(=O)c2ccc(-c3cc(-c4nnc(C)o4)ccc3C)cc2)cc1 [GW595885]")
0
>>> experimentalresult("Cc1ccc(NC(=O)c2cccc(C#N)c2)cc1-c1ccc(C(=O)Nc2ccncc2)cc1 [GSK1398463]")
15
>>> experimentalresult("CC(C)N1CCC(n2cnc(-c3ccc(F)cc3)c2-c2ccnc(N)n2)CC1 [SB-223132]")
57
>>> experimentalresult("c1ccc(-c2ccc3c(-c4ccnc(Nc5ccc6c(c5)OCCO6)n4)cnn3n2)cc1 [GW818941]")
0

---

Tested on: VPS34
Construct: gene PIK3C3
Details: concentration: 1 μM, replicates: in singlicate; n = 1
readout: %Inh (%)

>>> experimentalresult("COC(=O)c1cccc(NC(=O)NCCNc2ccnc(Nc3ccc(F)cc3)n2)c1")
10
>>> experimentalresult("CC(C)N1CCC(n2cnc(-c3ccc(F)cc3)c2-c2ccnc(N)n2)CC1")
27
>>> experimentalresult("Nc1nccc2scc(-c3ccc4c(c3)CCN4C(=O)Cc3cc(F)ccc3F)c12")
8
>>> experimentalresult("Clc1ccc(-c2cc(-c3c[nH]nc3-c3ccccn3)ccn2)cc1")
0
>>> experimentalresult("NC(=O)c1sc(-n2cnc3ccccc32)cc1OCc1ccccc1F")
31
>>> experimentalresult("Cc1ccc(O)cc1Nc1cc(C(F)(F)F)nc2ccc(-c3ccncc3)cc12")
0
>>> experimentalresult("CN1CCC(n2cnc(-c3ccc(F)cc3)c2-c2ccnc(NC3CCNCC3)n2)CC1")
50
>>> experimentalresult("COc1ccc(Nc2nccc(N3CCC(NC(=O)Nc4ccc5c(c4)OCO5)C3)n2)cc1 (stereo not drawn)")
13
>>> experimentalresult("Clc1cccc(-c2nc(Nc3ccncc3)c3ccccc3n2)c1")
48

---

Test system: DCAMKL1
Construct: gene DCLK1
Settings: concentration: 1 μM, replicates: in singlicate; n = 1
Decide using %Inh: a value greater than or equal to 10% is t, a smaller one is f.

>>> classification("CS(=O)(=O)CCNCc1ccc(-c2ccc3ncnc(Nc4ccc(OCc5ccccc5)c(Cl)c4)c3c2)o1.Cl")
"f"
>>> classification("Nc1nc(-c2ccc3c(N)n[nH]c3c2)cc(N2CCC[C@@H](C(=O)Nc3ccccc3)C2)n1.O=C(O)C(F)(F)F.O=C(O)C(F)(F)F")
"t"
>>> classification("Fc1cccc(COc2ccc(Nc3ncnc4nn5ccccc5c34)cc2Cl)c1")
"f"
>>> classification("COc1ccc(Nc2nccc(N3CCC(NC(=O)Nc4ccc5c(c4)OCO5)C3)n2)cc1 (centres unmarked)")
"f"
>>> classification("CS(=O)(=O)CCNCc1nc(-c2ccc3ncnc(Nc4ccc(OCc5cccc(F)c5)c(Cl)c4)c3c2)cs1.Cl")
"t"
>>> classification("CC(C)(C)c1ccc(-n2cnc3c(N)ncnc32)cc1")
"f"
>>> classification("Cn1ccc2ncnc(Nc3ccc(Oc4cccc(Cl)c4)c(Cl)c3)c21")
"t"

---

System: EPHA2
Conditions: concentration: 1 μM, replicates: in singlicate; n = 1
readout: %Inh

>>> experimentalresult("O=C(Nc1ccccc1)Nc1ccc(Oc2ccc3nccn3n2)cc1")
"25%"
>>> experimentalresult("Nc1nc(-c2ccc3c(N)n[nH]c3c2)cc(N2CCC[C@@H](C(=O)Nc3ccccc3)C2)n1.O=C(O)C(F)(F)F.O=C(O)C(F)(F)F")
"0%"
>>> experimentalresult("Cc1ccc(C)c(NC(=O)NCCNc2ccnc(Nc3ccc(F)cc3)n2)c1")
"11%"
>>> experimentalresult("FC(F)(F)c1ccc(-c2cc(-c3c[nH]nc3-c3ccccn3)ccn2)cc1")
"0%"
>>> experimentalresult("Fc1ccc(Nc2nccc(-c3c(-c4ccc(Cl)cc4)nn4ncccc34)n2)cc1F")
"3%"
>>> experimentalresult("c1ccc(-c2ccc3c(-c4ccnc(Nc5ccc6c(c5)OCCO6)n4)cnn3n2)cc1")
"18%"
>>> experimentalresult("Cl.O=S(=O)(c1cccc(F)c1)c1ccc(Nc2ncnc3cc(Br)sc23)cc1Cl")
"9%"
>>> experimentalresult("O=C(NCCCN1CCCC1=O)c1cnc(NCc2cc(Cl)ccc2Cl)nc1NC1CCNCC1")
"2%"
>>> experimentalresult("CNc1nccc(-c2c(-c3ccc(F)cc3)ncn2CCCN2CCOCC2)n1")
"0%"
>>> experimentalresult("CN1CCC(n2cnc(-c3ccc(F)cc3)c2-c2ccnc(NC3CCNCC3)n2)CC1")
"5%"
>>> experimentalresult("O=C(CCO)NCCn1ccc2ncnc(Nc3ccc(Oc4cccc(C(F)(F)F)c4)c(Cl)c3)c21")
"0%"
>>> experimentalresult("COc1cc2ncnc(Nc3ccc(OCc4ccccc4Br)c(Cl)c3)c2cc1OC.Cl")
"14%"
>>> experimentalresult("COc1cc2c(Nc3cccc(NC(=O)c4ccccc4)c3)ncnc2cc1OCCCN1CCOCC1")
"29%"

---

Here, each record is paired with measured %Inh data.
Tested on: DYRK1A
Details: concentration: 1 μM, replicates: in singlicate; n = 1
readout: %Inh (%)

>>> experimentalresult("Cc1cccc(-c2nc(Nc3ccc4[nH]nnc4c3)c3ccccc3n2)n1 [GW867587]")
0
>>> experimentalresult("CN1c2ccc(-c3ccc(C(=O)NCCO)cc3)cc2-c2[nH]ncc2S1(=O)=O")
47
>>> experimentalresult("O=C(Nc1n[nH]c2nc(-c3ccco3)c(Br)cc12)c1ccc(CN2CCCC2)cc1.O=C(O)[C@H](O)[C@@H](O)C(=O)O [SB-742352]")
0
>>> experimentalresult("FC(F)(F)c1ccc(-c2cc(-c3c[nH]nc3-c3ccccn3)ccn2)cc1 [GW599550]")
10
>>> experimentalresult("Cl.Cn1ccc(-c2cccc(Nc3ccnc4cc(-c5nccs5)ccc34)c2)n1 [GW525701]")
12
>>> experimentalresult("FC(F)(F)c1cc(Nc2nccc(-c3c(-c4ccc(Cl)cc4)nn4ncccc34)n2)ccc1Cl [GW829351]")
0
>>> experimentalresult("CC(C)N1CCC(n2cnc(-c3ccc(F)cc3)c2-c2ccnc(N)n2)CC1 [SB-223132]")
0
>>> experimentalresult("CS(=O)(=O)CCNCc1nc(-c2ccc3ncnc(Nc4ccc(OCc5cccc(F)c5)c(Cl)c4)c3c2)cs1.Cl [GW583340]")
12
>>> experimentalresult("c1ccc(-c2ccc3c(-c4ccnc(Nc5ccc6c(c5)OCCO6)n4)cnn3n2)cc1 [GW818941]")
8
>>> experimentalresult("COc1ccc(NC(=O)c2ccc(-c3cc(-c4nnc(C)o4)ccc3C)cc2)cc1 [GW595885]")
20
>>> experimentalresult("Fc1ccc(-c2ncn(CCCNCc3ccccc3)c2-c2ccncc2)cc1")
22
>>> experimentalresult("Clc1cccc(-c2nc(Nc3ccncc3)c3ccccc3n2)c1 [GW873004]")
12
>>> experimentalresult("Cc1ccc(C)c(NC(=O)NCCNc2ccnc(Nc3ccc(F)cc3)n2)c1 [GSK1379878]")
0
>>> experimentalresult("Oc1ccc2ncnc(Nc3ccc(OCc4ccccc4)cc3)c2c1 [GI262866]")
16
>>> experimentalresult("COc1ccc(Nc2nccc(N3CCC(NC(=O)c4cccc(NC(C)=O)c4)C3)n2)cc1 (centres unmarked) [GSK1379732]")
8
>>> experimentalresult("Nc1nc(-c2ccc3c(N)n[nH]c3c2)cc(N2CCCCC2)n1 [GSK2228768]")
18
>>> experimentalresult("Cc1cc(N2CCC(NS(=O)(=O)c3ccc(F)cc3)CC2)nc(Nc2cccc(C#N)c2)n1.O=C(O)C(F)(F)F [GSK1653537]")
32
